# SYSTEM_UNDER_TEST: HLA-A*11:01
# TEST_PROTOCOL: IEDB peptide-MHC binding, purified MHC/direct/fluorescence; filed as Kd, often an IC50 or EC50 that approximates it; bounds were set here for any values at or beyond the usual limits of such assays
# CONDITION_DESCRIPTION: source organism: Orthohantavirus hantanense
MEASUREMENT_LABEL: pKd
// pKd here means minus log10 of the molar concentration (mol/L)

Ask: Recorded pKd for RLNLKTSFH , please?
Reply: 5.87

* * *

# SYSTEM_UNDER_TEST: HLA-A*02:03
# TEST_PROTOCOL: IEDB peptide-MHC binding, purified MHC/direct/fluorescence; filed as Kd, often an IC50 or EC50 that approximates it; bounds were set here for any values at or beyond the usual limits of such assays
# CONDITION_DESCRIPTION: source organism: Rickettsia sibirica 246
MEASUREMENT_LABEL: Kd

Ask: Quick one: Kd of APVESMALF ?
Reply: ≥ 20 µM

* * *

# SYSTEM_UNDER_TEST: HLA-B*73:01
# TEST_PROTOCOL: IEDB peptide-MHC binding, purified MHC/direct/fluorescence; filed as Kd, often an IC50 or EC50 that approximates it; bounds were set here for any values at or beyond the usual limits of such assays
# CONDITION_DESCRIPTION: source organism: Lyssavirus rabies
pKd: −log10 of the molar value.
MEASUREMENT_LABEL: pKd

Ask: For the sequence RQMKSGGRF , what pKd is on record?
Reply: ≤ 4.70

* * *

# SYSTEM_UNDER_TEST: HLA-B*57:01
# TEST_PROTOCOL: IEDB peptide-MHC binding, purified MHC/competitive/radioactivity; filed as Kd, often an IC50 or EC50 that approximates it; bounds were set here for any values at or beyond the usual limits of such assays
# CONDITION_DESCRIPTION: source organism: Dengue virus 2 Peru/IQT2913/1996
MEASUREMENT_LABEL: Kd (nM)
Enter your answer as a number in nM; do not include the unit.

Ask: Field request: Kd | item: ESWEEIPYLG
Reply: 78.3

* * *

# SYSTEM_UNDER_TEST: HLA-A*69:01
# TEST_PROTOCOL: IEDB peptide-MHC binding, purified MHC/competitive/fluorescence; filed as Kd, often an IC50 or EC50 that approximates it; bounds were set here for any values at or beyond the usual limits of such assays
# CONDITION_DESCRIPTION: source organism: Zaire ebolavirus
pKd: −log10 of the molar value.
MEASUREMENT_LABEL: pKd

Some sequences with known pKd results, for comparison:
SEQUENCE_RECORD	MEASUREMENT_LABEL	RESULT
LTDRELLLL	pKd	≤ 4.70
YFTFDLTAL	pKd	≤ 4.70

Ask: Dear colleague, I am looking for the recorded pKd of the following sequence: WLQKIPLQW
Reply: ≤ 4.70

* * *

# SYSTEM_UNDER_TEST: HLA-B*44:02
# TEST_PROTOCOL: IEDB peptide-MHC binding, purified MHC/competitive/fluorescence; filed as Kd, often an IC50 or EC50 that approximates it; bounds were set here for any values at or beyond the usual limits of such assays
# CONDITION_DESCRIPTION: source organism: Rickettsia bellii OSU 85-389
pKd: −log10 of the molar value.
MEASUREMENT_LABEL: pKd

Ask: Fill blank: measured pKd of the sequence EDFEIFYNL is ____.
Reply: ≤ 5.30

These data points were gathered from the Immune Epitope Database (IEDB).
